Some variants, each annotated with its measured normalized RNA/DNA level with ligand (log10).
B1: library; a variant is named by its letters at N, in order (parent)
chain: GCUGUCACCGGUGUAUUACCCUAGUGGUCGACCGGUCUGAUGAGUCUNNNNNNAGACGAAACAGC

Variants of: B1
Experiment: normalized RNA/DNA level with ligand (relative to sTRSVctl = 100) (log10 (% of sTRSVctl)); ligand: hypoxanthine (xanthine aptamer); higher = less ribozyme self-cleavage, higher mRNA level
Conditions: ligand concentration (+) RNA-Seq: 5 mM, HEK293T, reporter: mCherry (pCS4076), ligand present: yes
Please reply with the number alone, leaving off any unit.

mutationKey	testValue
GAGUCG	1.84
CGUGUC	1.95
GCCGAA	1.96

Retrieve normalized RNA/DNA level with ligand (log10) measured for `UGGCUA` and print it.
2.01

Retrieve normalized RNA/DNA level with ligand (log10) measured for `ACGUAU` and print it.
1.86

Retrieve normalized RNA/DNA level with ligand (log10) measured for `UCCCAC` and print it.
1.89

Retrieve normalized RNA/DNA level with ligand (log10) measured for `AUGGGG` and print it.
1.88

Retrieve normalized RNA/DNA level with ligand (log10) measured for `GCUUCU` and print it.
2

Retrieve normalized RNA/DNA level with ligand (log10) measured for `ACCGUU` and print it.
1.91

Retrieve normalized RNA/DNA level with ligand (log10) measured for `CGUAAU` and print it.
1.86
